Test system: NCI-H460
Assay: Cytotoxicity against human H460 cells assessed as cell growth inhibition after 72 hrs by MTT assay
Assay type: functional, cell-based
Details: NCI-H460, 72 h
Listing: IC50 of selected molecules
Your answer should be a plain number; it is taken to be in µM.

Recorded results for 3 molecules are shown here.
In: Which IC50 reading was recorded for the molecule Cc1ccc2c(c1)/C(=c1/sc(=Cc3ccc(F)c(F)c3)c(=O)n1CCN(C)C)C(=O)N2 (mixture of isomers) ?
Out: 59.7

In: Which IC50 reading was recorded for the molecule CCN(CC)CCCn1c(=O)c(=Cc2ccccc2O)s/c1=C1\C(=O)Nc2ccc(Br)cc21 (mixture of isomers) ?
Out: 51.7

In: Which IC50 reading was recorded for the molecule CCN(CC)CCCn1c(=O)c(=Cc2ccc(F)cc2F)s/c1=C1\C(=O)Nc2cc(F)ccc21 (mixture of isomers) ?
Out: 2.33

Next, consider the following molecule.
In: Which IC50 reading was recorded for the molecule COc1ccc(C=c2s/c(=C3\C(=O)Nc4cc(F)ccc43)n(CCN(C)C)c2=O)c(OC)c1 (mixture of isomers) ?
Out: 20.5
